# credit: patent US11584744B2

test system: S. pyogenes (ATCC 19615); experiment: MIC susceptibility testing; format: cell-based; conditions: Streptococcus pyogenes, ATCC19615, S. pyogenes ATCC 19615; read-out: (H) S. pyogenes (ATCC 19615) MIC
metric: MIC

Asked: Give me measured MIC, please, for this compound: CC(C)NCC(O)Cn1c(Cc2ccc(Cl)cc2Cl)cn(Cc2nc3ccc(F)nc3[nH]2)c1=O (centres unmarked)
Given back: > 8 µg/mL

Asked: Given the compound CCn1c(Cc2ccc(OC)cc2Cl)cn(Cc2nc3nc(Cl)ccc3[nH]2)c1=O , write its reported MIC.
Given back: 0.678 µg/mL

Asked: Consider the compound CCn1c(Cc2ccc(OC)cc2Cl)cn(Cc2nc3nc(F)ccc3[nH]2)c1=O . State its measured MIC.
Given back: 0.754 µg/mL

Asked: // Input: COc1cc(Cl)c(Cc2cn(Cc3nc4ccc(Cl)nc4[nH]3)c([S+](C)[O-])n2)cc1OC (centres unmarked) . Output its MIC only.
Given back: 0.847 µg/mL

Asked: # return recorded MIC for entry C[S+]([O-])c1nc(Cc2ccc(Cl)cc2Cl)cn1Cc1nc2nc(Cl)ccc2[nH]1 (centres unmarked)
Given back: > 4 µg/mL

Asked: Provide measured MIC value, entry: CCNC(=O)n1c(Cc2ccc(Cl)cc2Cl)cn(Cc2nc3nc(Cl)ccc3[nH]2)c1=O
Given back: > 2 µg/mL

Asked: Supply measured MIC of C[S+]([O-])c1nc(Cc2ccc(Cl)cc2Cl)cn1Cc1nc2ccc(F)nc2[nH]1 (centres unmarked) in your reply.
Given back: > 4 µg/mL

Asked: Return value of MIC for input CCn1c(C(=O)c2ccc(OC)cc2Cl)cn(Cc2nc3ccc(Cl)nc3[nH]2)c1=O , no commentary.
Given back: 0.455 µg/mL
